Biological target: human CD33 F21V (human, UniProt P20138 18-364)
Sequence (P20138 18-364 F21V limits assumed): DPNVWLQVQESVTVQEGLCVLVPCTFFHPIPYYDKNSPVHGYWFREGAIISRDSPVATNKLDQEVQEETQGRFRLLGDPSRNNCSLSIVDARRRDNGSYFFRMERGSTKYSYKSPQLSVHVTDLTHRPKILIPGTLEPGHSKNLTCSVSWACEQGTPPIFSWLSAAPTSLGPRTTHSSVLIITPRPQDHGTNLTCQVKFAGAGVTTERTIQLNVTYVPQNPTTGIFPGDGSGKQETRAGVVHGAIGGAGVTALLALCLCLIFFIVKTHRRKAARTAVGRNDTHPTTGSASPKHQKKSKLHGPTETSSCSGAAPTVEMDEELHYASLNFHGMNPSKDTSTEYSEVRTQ
Assay: flow cytometry, mutant on cells, IgG
Assay metric: Mean % WT Binding (% WT binding)
State just the number; it will be interpreted in % WT binding.

{"Binder": "Refmab #2 (antibody, human IgG1, V domains shown, Tested in IgG format; human IgG1 Fc silent (PG-LALA)) VH: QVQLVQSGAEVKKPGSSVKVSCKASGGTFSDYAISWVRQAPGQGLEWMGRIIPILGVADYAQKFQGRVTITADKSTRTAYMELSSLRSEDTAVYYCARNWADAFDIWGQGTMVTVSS VL: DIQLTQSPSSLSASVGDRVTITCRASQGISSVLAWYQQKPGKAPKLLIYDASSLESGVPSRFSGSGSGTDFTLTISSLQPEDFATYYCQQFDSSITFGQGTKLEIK", "Assay metric": "Mean % WT Binding", "Unit descriptor": "% WT binding", "Measurement": 117}
{"Binder": "Refmab #3 (antibody, human IgG1, V domains shown, Tested in IgG format; human IgG1 Fc silent (PG-LALA)) VH: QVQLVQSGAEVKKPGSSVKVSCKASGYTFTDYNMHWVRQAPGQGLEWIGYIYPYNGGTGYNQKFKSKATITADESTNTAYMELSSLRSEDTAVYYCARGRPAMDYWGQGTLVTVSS VL: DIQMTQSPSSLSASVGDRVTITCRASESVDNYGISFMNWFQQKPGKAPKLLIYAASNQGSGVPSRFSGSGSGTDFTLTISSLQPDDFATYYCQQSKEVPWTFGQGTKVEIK", "Assay metric": "Mean % WT Binding", "Unit descriptor": "% WT binding", "Measurement": 0.7}
{"Binder": "Refmab #4 (antibody, human IgG1, V domains shown, Tested in IgG format; human IgG1 Fc silent (PG-LALA)) VH: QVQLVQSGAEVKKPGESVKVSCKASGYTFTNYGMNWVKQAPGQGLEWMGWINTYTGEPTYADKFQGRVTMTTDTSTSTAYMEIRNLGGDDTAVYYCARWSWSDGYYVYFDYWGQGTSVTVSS VL: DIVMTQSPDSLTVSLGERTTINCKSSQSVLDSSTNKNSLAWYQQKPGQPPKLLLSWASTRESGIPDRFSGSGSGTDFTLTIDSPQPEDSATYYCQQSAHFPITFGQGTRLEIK", "Assay metric": "Mean % WT Binding", "Unit descriptor": "% WT binding", "Measurement": 118}

Field: next binder
Looking for the measured Mean % WT Binding of Refmab #1 (antibody, human IgG1, V domains shown, Tested in IgG format; human IgG1 (Absolute Antibody hP67.6, Cat. No. Ab00283-10.0); also called hP67.6) VH: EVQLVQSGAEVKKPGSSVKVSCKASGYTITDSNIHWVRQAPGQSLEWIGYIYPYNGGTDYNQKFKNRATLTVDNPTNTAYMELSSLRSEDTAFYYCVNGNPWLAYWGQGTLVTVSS VL: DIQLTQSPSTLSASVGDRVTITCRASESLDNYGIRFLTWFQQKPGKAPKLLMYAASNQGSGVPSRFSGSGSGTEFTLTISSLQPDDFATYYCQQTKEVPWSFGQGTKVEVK , can you help?
1.5
